Source listed as ChEMBL document CHEMBL1148827.

- Assay comment: Cytotoxicity against human […] cells by MTS assay after 24 hrs
- Type: functional, cell-based
# pIC50 per entry
Expect pIC50 as a plain number equal to -log10 of the molar concentration.

The cases that follow already have their pIC50 on record.
O=C1C(=O)N(Cc2ccc(C(F)(F)F)cc2)c2c(Br)cc(Br)cc21 : 6.27
O=C1C(=O)N(Cc2ccc([N+](=O)[O-])cc2)c2c(Br)cc(Br)cc21 : 5.56
O=C1C(=O)N(Cc2ccc(Br)cc2)c2c(Br)cc(Br)cc21 : 5.72

Data request: Return reported pIC50. Input molecule: `O=C1C(=O)N(Cc2ccc(-c3ccccc3)cc2)c2c(Br)cc(Br)cc21`
Data returned: 5.69

----------
IC50 by entry:
- Tested on: Jurkat
- Assay comment: Cytotoxicity against human Jurkat cells by MTS assay after 24 hrs
- Assay type: functional, cell-based
The number alone won't do; follow it with the unit.

COC(=O)c1ccc(CN2C(=O)C(=O)c3cc(Br)cc(Br)c32)cc1 : 1.19 µM

Data request: Quick one: give measured IC50 for `O=C1C(=O)N(Cc2ccc(C(F)(F)F)cc2)c2c(Br)cc(Br)cc21`
Data returned: 0.69 µM

Data request: Dear colleague, please send me the reported IC50 for `O=C1C(=O)N(Cc2ccc([N+](=O)[O-])cc2)c2c(Br)cc(Br)cc21` when you can.
Data returned: 0.89 µM

Data request: Report IC50, nothing else, for this compound: `O=C1C(=O)N(Cc2ccc(Cl)cc2)c2c(Br)cc(Br)cc21`
Data returned: 0.5 µM

Data request: // Input: `CC(C)CCN1C(=O)C(=O)c2cc(Br)cc(Br)c21` . Output its IC50 only.
Data returned: 3.47 µM

----------
- System under test: Tubulin
- Assay comment: Displacement of [3H]colchicine from tubulin by scintillation proximity assay
Reported endpoint: pIC50
pIC50 field: float, defined as -log10 of concentration (mol/L).

Data request: Return pIC50 for the following compound: `COc1cc(-c2ccc3c(c2)NC(=O)/C3=C\c2ccc[nH]2)ccc1O`
Data returned: 6.89

----------
- Assay comment: Cytotoxicity against human […] cells by MTS assay after 24 hrs
- Assay type: functional, cell-based
Reported endpoint: IC50 (nM)
Just the number please, in nM, no unit attached.

Here are 3 compounds together with their reported answers.
CC(C)(C)c1ccc(CN2C(=O)C(=O)c3cc(Br)cc(Br)c32)cc1 : 980
O=C1C(=O)N(Cc2ccc(Cl)cc2)c2c(Br)cc(Br)cc21 : 2770
O=C1C(=O)N(Cc2ccc(I)cc2)c2c(Br)cc(Br)cc21 : 2920

Now, please, on to the next compound.
Data request: Give IC50 for the following compound: `Cc1ccc(CN2C(=O)C(=O)c3cc(Br)cc(Br)c32)cc1`
Data returned: 1910
